# Ki listing for each entry below
assayed.system: Cannabinoid receptor 1 (Rattus norvegicus, UniProt P20272)
Sequence (P20272 whole entry): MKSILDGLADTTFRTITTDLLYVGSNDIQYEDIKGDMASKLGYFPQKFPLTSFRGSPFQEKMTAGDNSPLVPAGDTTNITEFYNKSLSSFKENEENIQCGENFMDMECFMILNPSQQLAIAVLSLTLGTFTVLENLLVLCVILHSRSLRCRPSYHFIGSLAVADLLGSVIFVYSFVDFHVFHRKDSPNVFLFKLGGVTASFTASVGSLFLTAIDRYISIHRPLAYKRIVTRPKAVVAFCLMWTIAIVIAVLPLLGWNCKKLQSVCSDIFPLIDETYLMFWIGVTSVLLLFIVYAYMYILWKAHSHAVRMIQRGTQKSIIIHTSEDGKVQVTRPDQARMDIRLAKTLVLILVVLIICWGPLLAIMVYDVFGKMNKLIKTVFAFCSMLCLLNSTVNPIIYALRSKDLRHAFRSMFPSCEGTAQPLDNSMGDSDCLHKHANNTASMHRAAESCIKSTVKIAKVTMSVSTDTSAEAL
test: Displacement of [3H]CP55,940 from CB1 receptor in rat brain cortical membranes
Type: cell membranes

Example entries and their recorded answers appear below.
- compound: "O=C1/C(=C/c2cccc(OCc3ccc(Cl)cc3Cl)c2)N=C2SCCCN12"
  measured.result: "0.55 µM"
- compound: "O=C1N=C2SCCN2C1(c1ccccc1)c1ccccc1"
  measured.result: "> 10 µM"
- compound: "O=C1/C(=C/c2ccc(Br)cc2)N=C2SCCCN12"
  measured.result: "> 10 µM"
- compound: "O=C1/C(=C/c2cccc(OCc3ccccc3)c2)N=C2SCCCCN12"
  measured.result: "2.01 µM"
- compound: "O=C1/C(=C/c2cccc(OCc3ccc(Cl)cc3)c2)N=C2SCCCCN12"
  measured.result: "0.82 µM"
- compound: "COc1ccc(/C=C2\\N=C3SCCCN3C2=O)cc1OC"
  measured.result: "> 10 µM"
- compound: "CC(C)c1ccc(/C=C2\\N=C3SCCCN3C2=O)cc1"
  measured.result: "> 10 µM"
- compound: "O=C1/C(=C/c2cccc(Cl)c2)N=C2SCCCN12"
  measured.result: "> 10 µM"

Look up and report measured Ki for this entry: O=C1/C(=C/c2cccc(Oc3ccccc3)c2)N=C2SCCCCN12
3.63 µM

Please supply the value of reported Ki for the item COc1ccccc1/C=C1\N=C2SCCCN2C1=O
> 10 µM

State its Ki for this compound: C/C(=C1/N=C2SCCCCN2C1=O)c1ccccc1
> 10 µM

Please indicate Ki recorded for O=C1/C(=C/c2cccc(OCc3ccc(Cl)c(Cl)c3)c2)N=C2SCCCN12
> 10 µM

Read the entry O=C1/C(=C/c2ccccc2Cl)N=C2SCCCN12 and write its reported Ki.
> 10 µM

Given O=C1N2CCCCSC2=NC1(c1ccccc1)c1ccccc1 , respond with its Ki.
3.94 µM

Specify measured Ki for CCOC(=O)C1CN2C(=NC(=O)C2(c2ccccc2)c2ccccc2)S1 (centres undefined) .
> 10 µM

Give reported Ki value for O=C1/C(=C/c2ccccc2)N=C2SCCCN12
> 10 µM

// data source = ChEMBL document CHEMBL3217528
